B1: RHOBTB3 (parent)
chain: STTEGIQLAKELGATYLELHSLDD

Variants of: B1
Test: protein stability index of a GFP-peptide fusion (GPS, HEK-293T) (PSI 1-6); higher = more stable;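 also: lentivirally expressed fusions sorted by FACS into six bins by GFP to DsRed ratio, PSI derived from sequencing read proportions per bin multiplied by bin number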
Setup conditions: c terminus: a fixed tail appended

{"columns": ["Biopolymer sequence", "protein stability index"],
 "data": [
  ["STTEGIQCAKELGATYLELHSLDD", 3.94],
  ["STTEGIQLAKELGATYLNLHSLDD", 4.02],
  ["STTEGIQLAKELGATYLELHGLDD", 4],
  ["STTEGIQLNKELGATYLELHSLDD", 4.06],
  ["STTEGVQLAKELGATYLELHSLDD", 4.05],
  ["STTEGIQLAKELGSTYLELHSLDD", 4.02]
]}
